tested system: T1, TJP3_3, O95049
T1 sequence (O95049 375-456, limits assumed, looked up): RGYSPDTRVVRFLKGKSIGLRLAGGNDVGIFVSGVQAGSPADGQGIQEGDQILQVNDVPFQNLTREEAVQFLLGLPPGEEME
protocol details: holdup assay
Set-up: key: below the threshold = too weak to quantify, mostly under pKd 3.1 to 4
test conditions: plain residues with an end cap or a label only (N-terminal biotin on a linker: ado-ado)
property measured: pKd

[[record]]
binder = "APIAGFSSFV [SDK2, Q58EX2]"
observed_result = 3.82

[[record]]
binder = "QLSFNTDTLC [ABCA2, Q9BZC7]"
observed_result = "below the threshold"

[[record]]
binder = "ELSATVTTDC [TRIP6, Q15654]"
observed_result = "below the threshold"

[[record]]
binder = "RDPPAEWTRV [PTPN18, Q99952]"
observed_result = "below the threshold"

